B1: FBXO3 (parent)
chain: AGGFQQRQGLKYCLPLTFCIHTGL

- Variants of: B1
- TEST PROTOCOL: protein stability index of a GFP-peptide fusion (GPS, HEK-293T) (PSI 1-6); higher = more stable;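 further: lentivirally expressed fusions sorted by FACS into six bins by GFP to DsRed ratio, PSI derived from sequencing read proportions per bin multiplied by bin number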
- MEASUREMENT CONDITIONS: c terminus: a fixed tail appended
// -1 strictly below 3 in protein stability index; 1 otherwise

Lookup: Check if protein stability index >= 3 (inclusive). Item: F18N
Found: -1

Lookup: Decide: is the reported value of protein stability index for T22R equal to or greater than 3?
Found: -1

Lookup: Check this variant for protein stability index at or above 3: K11D
Found: 1

Lookup: Given the entry G23K , answer whether its protein stability index meets or surpasses 3.
Found: -1

Lookup: Reported protein stability index reaches at least 3 for G2E ?
Found: -1

Lookup: Check the entry L16M : does protein stability index equal or exceed 3?
Found: 1

Lookup: Reported protein stability index reaches at least 3 for P15Q ?
Found: -1

Lookup: # bool: protein stability index of Y12N >= 3
Found: -1

Lookup: Given the entry H21I , answer whether its protein stability index meets or surpasses 3.
Found: -1

Lookup: Does F4T have a reported protein stability index of at least 3?
Found: -1

Lookup: Decide: protein stability index of K11A >= 3?
Found: -1
